Data provenance: patent US20220096608

# SYSTEM: T1, α2-antiplasmin, P08697
# T1 chain: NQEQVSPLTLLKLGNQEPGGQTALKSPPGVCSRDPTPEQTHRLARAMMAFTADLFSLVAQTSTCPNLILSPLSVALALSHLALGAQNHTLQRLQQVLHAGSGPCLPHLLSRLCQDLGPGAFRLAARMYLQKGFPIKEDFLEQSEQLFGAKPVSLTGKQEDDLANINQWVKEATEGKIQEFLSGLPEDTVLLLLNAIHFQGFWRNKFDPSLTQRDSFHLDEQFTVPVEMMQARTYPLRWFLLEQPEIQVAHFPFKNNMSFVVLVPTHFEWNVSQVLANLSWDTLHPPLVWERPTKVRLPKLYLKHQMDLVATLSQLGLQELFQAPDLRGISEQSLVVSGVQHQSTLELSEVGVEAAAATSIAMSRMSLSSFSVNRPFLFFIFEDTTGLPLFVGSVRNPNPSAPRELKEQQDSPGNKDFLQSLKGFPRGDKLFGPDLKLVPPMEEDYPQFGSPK
EXPERIMENTAL ENDPOINT: In vitro Half-life (of inactivation by α2-antiplasmin)

These recorded examples may help you get a feel for the data.
>  <PROTEIN>
Mono-PEGylated Micro-plasmin variant (20 kDa PEG) H87C Catalytic Domain (SEQ ID NO. 9) (protein) APSFDCGKPQVEPKKCPGRVVGGCVAHPHSWPWQVSLRTRFGMHFCGGTLISPEWVLTAAHCLEKSPRPSSYKVILGAHQEVNLEPCVQEIEVSRLFLEPTRKDIALLKLSSPAVITDKVIPACLPSPNYVVADRTECFITGWGETQGTFGAGLLKEAQLPVIENKVCNRYEFLNGRVQSTELCAGHLAGGTDSCQGDSGGPLVCFEKDKYILQGVTSWGLGCARPNKPGVYVRVSRFVTWIEGVMRNN

>  <RESULT>
6 to 7 min

$$$$
>  <PROTEIN>
Mono-PEGylated Micro-plasmin variant (40 kDa PEG) H87C Catalytic Domain (SEQ ID NO. 9) (protein) APSFDCGKPQVEPKKCPGRVVGGCVAHPHSWPWQVSLRTRFGMHFCGGTLISPEWVLTAAHCLEKSPRPSSYKVILGAHQEVNLEPCVQEIEVSRLFLEPTRKDIALLKLSSPAVITDKVIPACLPSPNYVVADRTECFITGWGETQGTFGAGLLKEAQLPVIENKVCNRYEFLNGRVQSTELCAGHLAGGTDSCQGDSGGPLVCFEKDKYILQGVTSWGLGCARPNKPGVYVRVSRFVTWIEGVMRNN

>  <RESULT>
>7 min

$$$$

Task: If you can, please state the reported In vitro Half-life (of inactivation by α2-antiplasmin) value of Mono-PEGylated Micro-plasmin variant (20 kDa PEG) V82C Catalytic Domain (SEQ ID NO. 4) (protein) APSFDCGKPQVEPKKCPGRVVGGCVAHPHSWPWQVSLRTRFGMHFCGGTLISPEWVLTAAHCLEKSPRPSSYKVILGAHQECNLEPHVQEIEVSRLFLEPTRKDIALLKLSSPAVITDKVIPACLPSPNYVVADRTECFITGWGETQGTFGAGLLKEAQLPVIENKVCNRYEFLNGRVQSTELCAGHLAGGTDSCQGDSGGPLVCFEKDKYILQGVTSWGLGCARPNKPGVYVRVSRFVTWIEGVMRNN .
Result: 6 to 7 min
